system: RAW264.7; experiment: Antiinflammatory activity in mouse RAW264.7 cells assessed as inhibition of LPS-induced TNFalpha production at 10 uM preincubated for 2 hrs followed by LPS stimulation and measured after 24 hrs by ELISA; format: functional; conditions: time 26 hrs
Reported inhibition at 10 µM is given for each of the following molecules.
Quantity kind: inhibition at 10 µM (%)

| Line notation | Target of assay | Reported |
| --- | --- | --- |
| COc1cc([C@H]2C[C@H](O)C[C@@H]([C@@H](O)Cc3ccc(O)cc3)O2)ccc1O | RAW264.7 | 41 |
| COc1cc(CC[C@H](O)C[C@H](O)[C@@H](O)Cc2ccc(O)c(OC)c2)ccc1O | RAW264.7 | 34 |
| COc1cc(CC[C@@H](C[C@H](O)[C@@H](O)Cc2ccc(O)cc2)O[C@@H]2OC[C@@H](O)[C@H](O)[C@H]2O)ccc1O | RAW264.7 | 36 |
| COc1cc(CC[C@H](O)C[C@H](O)[C@@H](O)Cc2ccc(O)cc2)ccc1O | RAW264.7 | 39 |

Data origin: ChEMBL document CHEMBL5233262
